- Tested on: Streptococcus pyogenes SSI-9
- ASSAY_NOTES: Antibacterial activity assay of bead-derived peptides (three concentrations)
- Assay type: cell-based
- Set-up: key: +++: inhibition by the 640-fold diluted peptide solution; ++: inhibition by the 160-fold diluted solution; +: inhibition by the 40-fold diluted solution; -: no inhibition
- CONDITION_PARAMETERS: S. pyogenes, bead-derived peptide solution, three concentrations
Where a SMILES comes first, the peptide text is derived from it. [ ]: non-standard residue; d: D form. The star is where a group is joined. NHCH2CH2OH = OCCN*; For = O=C*
READOUT_NAME: antibacterial activity

Please review the following examples before continuing.
>  <COMPOUND>
CC(C)C[C@@H](NC(=O)[C@H](C)NC(=O)CNC(=O)[C@@H](NC=O)C(C)C)C(=O)N[C@@H](C)C(=O)N[C@H](CC(C)C)C(=O)N[C@H](C(=O)N[C@@H](C(=O)N[C@@H](Cc1c[nH]c2ccccc12)C(=O)N[C@@H](C(=O)N[C@@H](Cc1c[nH]c2ccccc12)C(=O)N[C@H](CC(C)C)C(=O)N[C@@H](Cc1c[nH]c2ccccc12)C(=O)N[C@H](CC(C)C)C(=O)N[C@@H](Cc1c[nH]c2ccccc12)C(=O)NCCO)[C@H](C)O)[C@H](C)O)C(C)C [compound 3858] (For-VGA[dL]A[dL]V[dT]W[dT]W[dL]W[dL]W-NHCH2CH2OH)

>  <EXPERIMENTAL_SYSTEM>
Streptococcus pyogenes SSI-9

>  <VALUE_REPORTED>
-

$$$$
>  <COMPOUND>
CC(C)C[C@@H](NC(=O)[C@H](Cc1c[nH]c2ccccc12)NC(=O)[C@H](NC(=O)[C@H](Cc1c[nH]c2ccccc12)NC(=O)[C@H](NC(=O)[C@@H](NC(=O)[C@H](NC(=O)[C@H](C)NC(=O)[C@H](NC(=O)[C@H](C)NC(=O)CNC(=O)[C@@H](NC=O)C(C)C)[C@H](C)O)C(C)C)C(C)C)C(C)C)C(C)C)C(=O)N[C@@H](Cc1c[nH]c2ccccc12)C(=O)N[C@@H](C(=O)N[C@@H](Cc1c[nH]c2ccccc12)C(=O)NCCO)C(C)C [compound 5933] (For-VGA[dT]A[dV]V[dV]W[dV]W[dL]W[dV]W-NHCH2CH2OH)

>  <EXPERIMENTAL_SYSTEM>
Streptococcus pyogenes SSI-9

>  <VALUE_REPORTED>
-

$$$$
>  <COMPOUND>
CC(C)C[C@@H](NC(=O)[C@H](Cc1c[nH]c2ccccc12)NC(=O)[C@@H](CC(C)C)NC(=O)[C@H](Cc1c[nH]c2ccccc12)NC(=O)[C@@H](CC(C)C)NC(=O)[C@H](Cc1c[nH]c2ccccc12)NC(=O)[C@@H](CC(C)C)NC(=O)[C@@H](NC(=O)[C@H](NC(=O)[C@H](C)NC(=O)[C@H](NC(=O)[C@H](C)NC(=O)CNC(=O)[C@@H](NC=O)C(C)C)C(C)C)C(C)C)C(C)C)C(=O)N[C@@H](Cc1c[nH]c2ccccc12)C(=O)NCCO [compound 7864] (For-VGA[dV]A[dV]V[dL]W[dL]W[dL]W[dL]W-NHCH2CH2OH)

>  <EXPERIMENTAL_SYSTEM>
Streptococcus pyogenes SSI-9

>  <VALUE_REPORTED>
+

$$$$
>  <COMPOUND>
CC(C)C[C@@H](NC(=O)[C@H](Cc1c[nH]c2ccccc12)NC(=O)[C@@H](CC(C)C)NC(=O)[C@H](Cc1c[nH]c2ccccc12)NC(=O)[C@@H](CC(C)C)NC(=O)[C@H](Cc1c[nH]c2ccccc12)NC(=O)[C@H](NC(=O)[C@@H](NC(=O)[C@H](NC(=O)[C@H](C)NC(=O)[C@H](NC(=O)[C@H](C)NC(=O)CNC(=O)[C@@H](NC=O)C(C)C)C(C)C)C(C)C)C(C)C)[C@H](C)O)C(=O)N[C@@H](Cc1c[nH]c2ccccc12)C(=O)NCCO [compound 12287] (For-VGA[dV]A[dV]V[dT]W[dL]W[dL]W[dL]W-NHCH2CH2OH)

>  <EXPERIMENTAL_SYSTEM>
Streptococcus pyogenes SSI-9

>  <VALUE_REPORTED>
-

$$$$

stdin: Name the reported antibacterial activity value associated with the compound CC(C)C[C@@H](NC(=O)[C@H](Cc1c[nH]c2ccccc12)NC(=O)[C@@H](CC(C)C)NC(=O)[C@H](Cc1c[nH]c2ccccc12)NC(=O)[C@H](NC(=O)[C@H](Cc1c[nH]c2ccccc12)NC(=O)[C@H](NC(=O)[C@@H](NC(=O)[C@H](NC(=O)[C@H](C)NC(=O)[C@H](NC(=O)[C@H](C)NC(=O)CNC(=O)[C@@H](NC=O)C(C)C)C(C)C)C(C)C)C(C)C)C(C)C)[C@H](C)O)C(=O)N[C@@H](Cc1c[nH]c2ccccc12)C(=O)NCCO [compound 10042] (For-VGA[dV]A[dV]V[dV]W[dT]W[dL]W[dL]W-NHCH2CH2OH)
stdout: -

stdin: Name the reported antibacterial activity value associated with the compound CC(C)C[C@@H](NC(=O)[C@H](C)NC(=O)[C@H](NC(=O)[C@H](C)NC(=O)CNC(=O)[C@@H](NC=O)C(C)C)C(C)C)C(=O)N[C@H](C(=O)N[C@H](CC(C)C)C(=O)N[C@@H](Cc1c[nH]c2ccccc12)C(=O)N[C@@H](C(=O)N[C@@H](Cc1c[nH]c2ccccc12)C(=O)N[C@@H](C(=O)N[C@@H](Cc1c[nH]c2ccccc12)C(=O)N[C@H](CC(C)C)C(=O)N[C@@H](Cc1c[nH]c2ccccc12)C(=O)NCCO)C(C)C)[C@H](C)O)C(C)C [compound 5572] (For-VGA[dV]A[dL]V[dL]W[dT]W[dV]W[dL]W-NHCH2CH2OH)
stdout: +

stdin: Name the reported antibacterial activity value associated with the compound CC(C)C[C@@H](NC(=O)[C@H](Cc1c[nH]c2ccccc12)NC(=O)[C@H](NC(=O)[C@H](Cc1c[nH]c2ccccc12)NC(=O)[C@H](NC(=O)[C@H](Cc1c[nH]c2ccccc12)NC(=O)[C@H](NC(=O)[C@@H](NC(=O)[C@H](NC(=O)[C@H](C)NC(=O)[C@H](NC(=O)[C@H](C)NC(=O)CNC(=O)[C@@H](NC=O)C(C)C)C(C)C)[C@H](C)O)C(C)C)C(C)C)C(C)C)C(C)C)C(=O)N[C@@H](Cc1c[nH]c2ccccc12)C(=O)NCCO [compound 9058] (For-VGA[dV]A[dT]V[dV]W[dV]W[dV]W[dL]W-NHCH2CH2OH)
stdout: -

stdin: Name the reported antibacterial activity value associated with the compound CC(C)C[C@@H](NC(=O)[C@H](C)NC(=O)[C@H](NC(=O)[C@H](C)NC(=O)CNC(=O)[C@@H](NC=O)C(C)C)C(C)C)C(=O)N[C@H](C(=O)N[C@@H](C(=O)N[C@@H](Cc1c[nH]c2ccccc12)C(=O)N[C@@H](C(=O)N[C@@H](Cc1c[nH]c2ccccc12)C(=O)N[C@H](CC(C)C)C(=O)N[C@@H](Cc1c[nH]c2ccccc12)C(=O)N[C@H](CC(C)C)C(=O)N[C@@H](Cc1c[nH]c2ccccc12)C(=O)NCCO)C(C)C)[C@H](C)O)C(C)C [compound 10367] (For-VGA[dV]A[dL]V[dT]W[dV]W[dL]W[dL]W-NHCH2CH2OH)
stdout: -
